target: human mesothelin (MSLN) (human) (UniProt Q13421); assay: BLI (Octet), bsAb in 1+1 Fab-scFv-Fc format
assay_endpoint: kon (M⁻¹ s⁻¹)
Please give a number only; it is taken to be in M⁻¹ s⁻¹.

Some binders with recorded kon:
{"binder": "XENP32556 (bispecific antibody, part only; not given: anti-CD3 scFv-Fc arm, constant regions, V domains shown, not shown: another chain or arm of the molecule; a dimerising Fc or GST; small tags and cut ends) VH: QVQLVQSGAEVKKPGASVKVSCKASGYTFTSYWMHWVRQAPGQGLEWMGMIHPNSDNTIYYEKFQGRVTMTVDKSISTAYMELSRLRSDDTAVYYCARIITPVVPKFDYWGQGTLVTVSS VL: DIVMTQSPDSLAVSLGERATINCKASHDVGTSVAWYQQKPGQSPKLLIYWASTRHTGVPDRFTGSGSGTDFTLTISSLQAEDVAVYFCQQYSSYPLTFGAGTKLEIK", "kon / M⁻¹ s⁻¹": 425000}
{"binder": "XENP32555 (bispecific antibody, part only; not given: anti-CD3 scFv-Fc arm, constant regions, V domains shown, not shown: another chain or arm of the molecule; a dimerising Fc or GST; small tags and cut ends) VH: QVQLVQSGAEVKKPGASVKVSCKASGYTFTSYWMHWVRQAPGQGLEWMGMIHPNSGNTIYYEKFQGRVTMTVDKSISTAYMELSRLRSDDTAVYYCAIIITPVVPKFDYWGQGTLVTVSS VL: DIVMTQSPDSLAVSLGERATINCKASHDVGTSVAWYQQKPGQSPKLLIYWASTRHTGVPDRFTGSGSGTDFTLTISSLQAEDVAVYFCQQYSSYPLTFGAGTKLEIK", "kon / M⁻¹ s⁻¹": 549000}
{"binder": "XENP32554 (bispecific antibody, part only; not given: anti-CD3 scFv-Fc arm, constant regions, V domains shown, not shown: another chain or arm of the molecule; a dimerising Fc or GST) VH: QVQLVQSGAEVKKPGASVKVSCKASGYTFTSYWMHWVRQAPGQGLEWMGMIHPQSDNTIYYEKFQGRVTMTVDKSISTAYMELSRLRSDDTAVYYCAIIITPVVPKFDYWGQGTLVTVSS VL: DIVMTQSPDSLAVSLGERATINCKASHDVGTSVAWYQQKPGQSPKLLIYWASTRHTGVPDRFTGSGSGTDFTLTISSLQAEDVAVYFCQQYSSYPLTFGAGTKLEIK", "kon / M⁻¹ s⁻¹": 555000}
{"binder": "XENP32558 (bispecific antibody, part only; not given: anti-CD3 scFv-Fc arm, constant regions, V domains shown, not shown: another chain or arm of the molecule; a dimerising Fc or GST; small tags and cut ends) VH: QVQLVQSGAEVKKPGASVKVSCKASGYTFTSYWMHWVRQAPGQGLEWMGMIHPNSDNTIYYEKFQGRVTMTVDKSISTAYMELSRLRSDDTAVYYCAIIITPVVPRFDYWGQGTLVTVSS VL: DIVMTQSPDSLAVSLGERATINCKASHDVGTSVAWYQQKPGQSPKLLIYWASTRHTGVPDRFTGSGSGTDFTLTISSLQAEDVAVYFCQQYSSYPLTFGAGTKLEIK", "kon / M⁻¹ s⁻¹": 249000}
{"binder": "XENP32553 (bispecific antibody, part only; not given: anti-CD3 scFv-Fc arm, constant regions, V domains shown, not shown: another chain or arm of the molecule; a dimerising Fc or GST; small tags and cut ends) VH: QVQLVQSGAEVKKPGASVKVSCKASGYTFTSYWMHWVRQAPGQGLEWMGMINPNSDNTIYYEKFQGRVTMTVDKSISTAYMELSRLRSDDTAVYYCAIIITPVVPKFDYWGQGTLVTVSS VL: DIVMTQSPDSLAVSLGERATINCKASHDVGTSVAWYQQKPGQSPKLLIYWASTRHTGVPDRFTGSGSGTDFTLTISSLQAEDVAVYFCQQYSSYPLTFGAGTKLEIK", "kon / M⁻¹ s⁻¹": 539000}

Ask: Quick one: kon of XENP32565 (bispecific antibody, part only; not given: anti-CD3 scFv-Fc arm, constant regions, V domains shown, not shown: another chain or arm of the molecule; a dimerising Fc or GST; small tags and cut ends) VH: QVQLVQSGAEVKKPGASVKVSCKASGYTFTSYWMHWVRQAPGQGLEWMGMIHPNSDNTIYYEKFQGRVTMTVDKSISTAYMELSRLRSDDTAVYYCAIIITPVVPKFDYWGQGTLVTVSS VL: DIVMTQSPDSLAVSLGERATINCKASHDVGTSVAWYQQKPGQSPKLLIYWASTRETGVPDRFTGSGSGTDFTLTISSLQAEDVAVYFCQQYSSYPLTFGAGTKLEIK ?
Reply: 590000
